Biological target: P2X purinoceptor 7 (Homo sapiens, UniProt Q99572)
Assay: Antagonist activity at recombinant human P2X7 receptor expressed in 1321N1 cells measured after 30 mins by fluorescence based calcium flux assay
Format: cell-based
quantity: IC50 (nM)
Report only the number, with the unit nM understood.

# input compound: O=C(OCC1c2ncn(-c3ccccc3)c2CCN1C(=O)c1cccc(C(F)(F)F)c1Cl)c1cccc(C(F)(F)F)c1Cl (stereo unspecified) ; wanted: its IC50
3.1

* * *

Reported IC50 values for a set of molecules
Target: UniProt:Q9Z1M0
Assay: Antagonist activity at mouse P2X7 receptor by calcium flux assay
Enter your answer as a number in µM; do not include the unit.

>>> numeric_readout("O=c1onc(Cc2c(F)cccc2Cl)n1CC1CCCCCC1")
0.2
>>> numeric_readout("O=c1onc(Cc2c(F)cccc2Cl)n1CC1CC2CCC1C2 (stereo not drawn)")
0.2

Give its IC50 value. Item: Cc1ncccc1Cc1noc(=O)n1CC1CCC(F)(F)CC1
1

Looking for the measured IC50 of O=c1onc(Cc2ccccc2Cl)n1CC1CCC(F)(F)CC1 , can you help?
0.2

If you can, please state the reported IC50 value of Cc1noc(C)c1Cc1noc(=O)n1CC1CCC(F)(F)CC1 .
1

Bench note: what IC50 did O=c1onc(Cc2ccc(Cl)cc2Cl)n1CC1CCC(F)(F)CC1 show?
0.2

For the molecule COc1ccc(Cc2noc(=O)n2CC2CCC(F)(F)CC2)cc1 , what IC50 is on record?
1

* * *

// reported half-life for each item listed
Experiment: Half life in Han Wistar rat Brain at 1 mg/kg, iv measured upto 6 hrs by liquid chromatography tandem mass spectrometry
Type: ADME, organism-based
Give the number; min is assumed, so skip it.

I'd like to know its half-life. The molecule in question is COc1ccc(Cl)c(C(=O)NCC23CC4CC(CC(C4)C2)C3)c1
9.6

Reported half-life for COc1ccc(Cl)c(C(=O)NCC23CC4(F)CC(F)(CC(F)(C4)C2)C3)c1 : what is it?
75.6

* * *

Target: P2X purinoceptor 7 (Homo sapiens, UniProt Q99572)
Experiment: Inhibition of human P2X7 receptor expressed in HEK293 cells incubated for 5 mins followed by Bz-ATP addition measured after 3 mins by fluorescence based assay
Format: cell-based
quantity: pIC50
Units for pIC50: none; it is -log10 of a concentration expressed in mol/L.

Missing value: pIC50, P2X purinoceptor 7 (Homo sapiens, UniProt Q99572), entry O=C(NCC(c1scnc1C(F)F)N1CCC(Oc2cccc(Cl)n2)CC1)c1c(F)cccc1Cl (stereo unspecified) . Fill in?
7.95

* * *

Target: UniProt Q9Z1M0
Experiment: Antagonist activity at P2X7 receptor in mouse Peritoneal macrophage cells assessed as reduction in ATP induced IL-1 beta release
Format: cell-based
Each item that follows carries a reported pIC50.
As a rule, pIC50 stands for the negative log10 of the concentration, concentration in M.

Worked examples, 3 molecules total:
>>> numeric_readout("CC1=C(C(c2ccc(Cl)cc2)n2cc(COCc3ccco3)nn2)C(=O)c2ccccc2C1=O (centres undefined)")
5.82
>>> numeric_readout("CC1=C(C(c2ccccc2)n2cc(COCc3ccco3)nn2)C(=O)c2ccccc2C1=O (centres undefined)")
3.84
>>> numeric_readout("CC1=C(C(c2ccc([N+](=O)[O-])cc2)n2cc(COCc3ccco3)nn2)C(=O)c2ccccc2C1=O (centres undefined)")
3.73

Which pIC50 is listed for CC1=C(Cn2cc(COCc3ccco3)nn2)C(=O)c2ccccc2C1=O ?
3.80

* * *

Measured IC50 of individual entries
Target: UniProt Q99572
Assay: Antagonist activity at human P2X7 receptor

For orientation, consider the following solved cases.
>>> result("CCc1cccc(Nc2nc(=O)c3[nH]cnc3n2Cc2ccc(F)cc2)c1CC")
"< 10 nM"
>>> result("COc1ccc(Nc2nc(=O)c3onc(C)c3n2Cc2ccc(F)c(F)c2)c(C)c1")
"< 10 nM"
>>> result("CN1C(=O)N=C(NCc2ccccc2)N2C1=NCC2c1cc(F)c(F)c(F)c1 (stereo not given)")
"< 10 nM"
>>> result("COc1nc(C)c(Nc2nc(=O)c3[nH]cnc3n2Cc2ccc(F)c(F)c2)cc1C")
"< 10 nM"
>>> result("CCN1C(=O)N=C(Nc2cc(C)c(C)cc2C)N2C1=NCC2c1ccccc1 (stereo not given)")
"< 10 nM"
>>> result("Cc1nc2cc(C)c(Nc3nc(=O)c4[nH]cnc4n3Cc3ccc(F)cc3)cc2s1")
"11 nM"

Suppose we examine the compound COc1ccc(Nc2nc(=O)c3[nH]cnc3n2Cc2ccc(F)c(F)c2)c(C)c1 ; what IC50 value has been reported?
< 10 nM

* * *

Target: UniProt Q64663
Sequence (Q64663 whole entry): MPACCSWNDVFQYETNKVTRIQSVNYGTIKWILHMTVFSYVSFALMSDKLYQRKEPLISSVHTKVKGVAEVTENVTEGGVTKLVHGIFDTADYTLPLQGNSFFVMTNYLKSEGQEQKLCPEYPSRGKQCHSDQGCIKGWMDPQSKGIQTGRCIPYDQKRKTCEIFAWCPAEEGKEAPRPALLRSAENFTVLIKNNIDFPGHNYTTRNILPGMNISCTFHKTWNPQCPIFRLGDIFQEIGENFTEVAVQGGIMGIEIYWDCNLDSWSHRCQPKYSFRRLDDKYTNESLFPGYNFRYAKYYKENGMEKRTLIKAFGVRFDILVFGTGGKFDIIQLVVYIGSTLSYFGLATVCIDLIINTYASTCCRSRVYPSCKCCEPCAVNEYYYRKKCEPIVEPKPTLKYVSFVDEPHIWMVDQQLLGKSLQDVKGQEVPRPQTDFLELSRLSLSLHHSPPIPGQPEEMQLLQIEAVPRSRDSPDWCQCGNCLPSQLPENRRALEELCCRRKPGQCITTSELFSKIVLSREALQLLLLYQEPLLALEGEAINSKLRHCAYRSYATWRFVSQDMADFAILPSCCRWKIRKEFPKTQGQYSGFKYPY
Test: Antagonist activity at rat P2X7 receptor by calcium flux assay
pIC50: −log10 of the molar value.
quantity: pIC50

>>> result("O=c1onc(Cc2ccccc2Cl)n1CC1CCC(F)(F)CC1")
"> 6.70"

Could you share which pIC50 value was measured for O=c1onc(CN2CCC(F)(F)CC2)n1CC1CCC(F)(F)CC1 ?
< 5.00

So what does the record say about pIC50 for O=c1onc(CN2CCOc3ccccc32)n1CC1CCC(F)(F)CC1 ?
> 6.70

Return reported pIC50; argument: O=c1onc(Cc2c(F)cccc2Cl)n1CC1CCCCCC1
> 6.70

Quick one: pIC50 of O=c1onc(Cc2c(F)cccc2Cl)n1CC1CCC(F)(F)CC1 ?
> 6.70

I am curious: what pIC50 value has been reported for Cc1noc(C)c1Cc1noc(=O)n1CC1CCC(F)(F)CC1 ?
6.70

Record request: pIC50 value, item O=c1onc(Cc2c(F)cccc2Cl)n1CC1CC2CCC1C2 (stereo not drawn)
> 6.70

What value of pIC50 has been recorded for this entry: O=c1onc(Cc2c(F)cccc2Cl)n1CC1CCC(C(F)(F)F)CC1 (stereo not drawn)
> 6.70

Field request: pIC50 | item: COc1ccc(Cc2noc(=O)n2CC2CCC(F)(F)CC2)cc1
6.00

* * *

Target: P2X purinoceptor 7 (Mus musculus) (UniProt Q9Z1M0)
Sequence (whole entry): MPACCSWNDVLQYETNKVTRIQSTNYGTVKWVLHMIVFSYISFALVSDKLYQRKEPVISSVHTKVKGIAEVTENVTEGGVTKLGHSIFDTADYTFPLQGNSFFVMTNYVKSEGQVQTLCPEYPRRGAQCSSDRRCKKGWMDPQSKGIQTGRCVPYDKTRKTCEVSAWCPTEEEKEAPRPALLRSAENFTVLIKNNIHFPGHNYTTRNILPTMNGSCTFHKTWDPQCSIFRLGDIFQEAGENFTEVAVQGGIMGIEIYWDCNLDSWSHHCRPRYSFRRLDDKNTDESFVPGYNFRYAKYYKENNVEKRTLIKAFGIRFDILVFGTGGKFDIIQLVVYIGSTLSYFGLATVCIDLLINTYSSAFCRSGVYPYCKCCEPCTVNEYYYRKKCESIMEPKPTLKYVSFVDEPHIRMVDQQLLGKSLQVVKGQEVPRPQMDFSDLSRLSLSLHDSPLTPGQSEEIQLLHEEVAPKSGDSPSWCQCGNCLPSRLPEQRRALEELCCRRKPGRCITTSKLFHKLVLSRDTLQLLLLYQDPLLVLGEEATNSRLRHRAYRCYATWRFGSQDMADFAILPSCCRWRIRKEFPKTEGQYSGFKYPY
Test: Antagonist activity at P2X7 receptor in mouse Peritoneal macrophage cells assessed as ATP induced dye uptake at 10 uM relative to control
Assay type: cell-based
quantity: inhibition

Sample records with inhibition:
>>> result("CC1=C(C(C)n2cc(COCc3ccco3)nn2)C(=O)c2ccccc2C1=O (centres undefined)")
"< 60%"
>>> result("CC1=C(C(c2ccc(F)cc2)n2cc(COCc3ccco3)nn2)C(=O)c2ccccc2C1=O (centres undefined)")
"< 60%"
>>> result("CC1=C(C(c2ccc(Br)cc2)n2cc(COCc3ccco3)nn2)C(=O)c2ccccc2C1=O (centres undefined)")
"< 60%"

Continue with the next compound.
Need inhibition of CC1=C(C(c2ccc(C)cc2)n2cc(COCc3ccco3)nn2)C(=O)c2ccccc2C1=O (centres undefined) , thanks.
< 60%

* * *

Target: P2X purinoceptor 7 (Homo sapiens, UniProt Q99572)
Sequence (Q99572 whole entry): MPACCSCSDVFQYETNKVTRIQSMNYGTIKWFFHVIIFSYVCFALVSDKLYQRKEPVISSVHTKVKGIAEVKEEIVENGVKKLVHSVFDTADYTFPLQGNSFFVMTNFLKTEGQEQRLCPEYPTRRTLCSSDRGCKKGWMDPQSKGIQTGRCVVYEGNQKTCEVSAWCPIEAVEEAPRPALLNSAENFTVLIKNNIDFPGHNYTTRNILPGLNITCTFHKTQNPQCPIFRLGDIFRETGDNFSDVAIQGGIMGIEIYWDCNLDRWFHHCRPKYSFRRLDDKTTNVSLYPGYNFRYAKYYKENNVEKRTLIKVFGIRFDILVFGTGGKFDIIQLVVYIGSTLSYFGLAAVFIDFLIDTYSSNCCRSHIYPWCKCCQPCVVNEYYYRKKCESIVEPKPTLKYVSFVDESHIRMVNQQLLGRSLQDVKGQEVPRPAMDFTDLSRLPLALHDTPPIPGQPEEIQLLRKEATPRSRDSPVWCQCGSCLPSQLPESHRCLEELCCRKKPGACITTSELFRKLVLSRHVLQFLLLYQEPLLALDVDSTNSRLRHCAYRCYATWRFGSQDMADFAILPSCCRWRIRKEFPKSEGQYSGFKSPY
Test: Inhibition of P2X7 (unknown origin) assessed as reduction in IL-1 beta release
quantity: IC50 (pM)
Supply the numeric figure in pM, leaving out any unit text.

>>> numeric_readout("C[C@H](CO)n1ccc2c(NC(=O)CC34CC5CC(CC(C5)C3)C4)cccc2c1=O")
1000

Consider the compound C[C@@H](CO)n1ccc2c(NC(=O)CC34CC5CC(CC(C5)C3)C4)cccc2c1=O and give its measured IC50.
150
